tested on: B16-F10; assay: Antiproliferative activity against mouse B16F10 cells after 72 hrs by MTS/PMS assay; format: functional, cell-based; details: B16-F10, 72 h
measured property: IC50 (µM)

molecule	measured property	cmp	meas value
COc1cccc(-c2cc(C(=O)Nc3cc4ccc(OC5CN(C)C[C@@H](O)[C@H]5O)c(OC)c4oc3=O)ccc2OC)c1 (stereo partly drawn)	IC50	=	6.58
COc1cccc(-c2cc(C(=O)Nc3cc4ccc(OC5C=CCN(C)C5)c(OC)c4oc3=O)ccc2OC)c1 (stereo not drawn)	IC50	=	6.47
COc1cccc(-c2cc(C(=O)Nc3cc4ccc(OC5C=CCCC5)c(C)c4oc3=O)ccc2OC)c1 (stereo not drawn)	IC50	>	50
COc1cccc(-c2cc(C(=O)Nc3cc4ccc(OC5CC(C)(C)C[C@@H](O)[C@H]5O)c(C)c4oc3=O)ccc2OC)c1 (stereo partly drawn)	IC50	=	15.9
COc1cccc(-c2cc(C(=O)Nc3cc4ccc(O[C@H]5OCCC[C@H]5O)c(C)c4oc3=O)ccc2OC)c1	IC50	=	10.4
COc1cccc(-c2cc(C(=O)Nc3cc4ccc(O[C@@H]5OCCC[C@@H](O)[C@H]5O)c(C)c4oc3=O)ccc2OC)c1	IC50	>	50
COc1cccc(-c2cc(C(=O)Nc3cc4ccc(OC5CCC[C@@H](O)[C@H]5O)c(C)c4oc3=O)ccc2OC)c1 (stereo partly drawn)	IC50	=	14.1
COc1cccc(-c2cc(C(=O)Nc3cc4ccc(OC5C=CCNC5)c(C)c4oc3=O)ccc2OC)c1 (stereo not drawn)	IC50	=	2.94

---

The following compounds are shown together with reported IC50 values.
assay: Antiproliferative activity against human androgen-independent PC3MM2 cells after 72 hrs by MTS/PMS assay; format: functional, cell-based; conditions: PC3MM2, 72 h

compound	IC50
COc1cccc(-c2cc(C(=O)Nc3cc4ccc(O[C@H]5OCC[C@@H](O)[C@H]5O)c(C)c4oc3=O)ccc2OC)c1	12.9 µM
COc1cccc(-c2cc(C(=O)Nc3cc4cc(OC)c(OC5C=CCNC5)c(C)c4oc3=O)ccc2OC)c1 (centres undefined)	3.57 µM
COc1cccc(-c2cc(C(=O)Nc3cc4cc(OC)c(OC(C)=O)c(C)c4oc3=O)ccc2OC)c1	1.69 µM
COc1cc2cc(NC(=O)c3ccc(O)c(CC=C(C)C)c3)c(=O)oc2c(C)c1OC1CCN(C)CC1	2.26 µM
COc1cccc(-c2cc(C(=O)Nc3cc4ccc(OC(C)=O)c(C)c4oc3=O)ccc2OC)c1	2.85 µM
COc1cccc(-c2cc(C(=O)Nc3cc4ccc(O[C@H]5C[C@H](O)CO5)c(C)c4oc3=O)ccc2OC)c1	10.1 µM
COc1cccc(-c2cc(C(=O)Nc3cc4ccc(OC5C=CCNC5)c(C)c4oc3=O)ccc2OC)c1 (centres undefined)	4.4 µM
COc1cccc(-c2cc(C(=O)Nc3cc4ccc(OP(=O)(OC)OC)c(C)c4oc3=O)ccc2OC)c1	> 100 µM
COc1c(OCCCN(C)C)ccc2cc(NC(=O)c3ccc(OC(C)=O)c(CC=C(C)C)c3)c(=O)oc12	4.59 µM
COc1cccc(-c2cc(C(=O)Nc3cc4ccc(OCCN(C)C)c(OC)c4oc3=O)ccc2OC)c1	6.2 µM
COc1cccc(-c2cc(C(=O)Nc3cc4ccc(OP(=O)(OC)OC)c(OC)c4oc3=O)ccc2OC)c1	11.5 µM
COc1cccc(-c2cc(C(=O)Nc3cc4ccc(OC5CC(C)(C)C[C@@H](O)[C@H]5O)c(C)c4oc3=O)ccc2OC)c1 (some centres undefined)	2.49 µM
COc1cc2cc(NC(=O)c3cc4ccccc4[nH]3)c(=O)oc2c(C)c1OCCCN(C)C	2.58 µM
COc1cccc(-c2cc(C(=O)Nc3cc4ccc(OC5CCNCC5)c(OC)c4oc3=O)ccc2OC)c1	8.47 µM

---

The following compounds are shown together with reported log10 of IC50 values.
test: Antiproliferative activity against human androgen-independent PC3MM2 cells after 72 hrs by MTS/PMS assay; format: functional, cell-based; details: PC3MM2, 72 h
measured property: log10 of IC50 (log10 of the value in µM)

compound	log10 of IC50
COc1cccc(-c2cc(C(=O)Nc3cc4ccc(OC5CCC[C@@H](O)[C@H]5O)c(C)c4oc3=O)ccc2OC)c1 (stereo partly drawn)	0.61
COc1c(OC2CCN(C)CC2)ccc2cc(NC(=O)c3ccc(OC(C)=O)c(CC=C(C)C)c3)c(=O)oc12	0.60
COc1cccc(-c2cc(C(=O)Nc3cc4ccc(OC5CCCNC5)c(OC)c4oc3=O)ccc2OC)c1 (stereo not drawn)	1.02
COc1cccc(-c2cc(C(=O)Nc3cc4ccc(OC(N)=O)c(C)c4oc3=O)ccc2OC)c1	0.80
COc1cccc(-c2cc(C(=O)Nc3cc4cc(OC)c(O[C@@H]5OCC[C@@H](O)[C@H]5O)c(C)c4oc3=O)ccc2OC)c1	1.38
COc1c(OC2CCN(C)CC2)ccc2cc(NC(=O)c3cc4ccccc4[nH]3)c(=O)oc12	0.90
COc1cccc(-c2cc(C(=O)Nc3cc4cc(OC)c(O[C@H]5C[C@H](O)CCO5)c(C)c4oc3=O)ccc2OC)c1	0.09

---

assay: Antiproliferative activity against human JMAR cells after 72 hrs by MTS/PMS assay; type: functional, cell-based
pIC50: −log10 of the molar value.
The following compounds are shown together with reported pIC50 values.
measured property: pIC50

compound	measured property	meas value
COc1cccc(-c2cc(C(=O)Nc3cc4ccc(OC5CCNCC5)c(OC)c4oc3=O)ccc2OC)c1	pIC50	4.90
COc1cccc(-c2cc(C(=O)Nc3cc4ccc(OC5CC(C)(C)C[C@@H](O)[C@H]5O)c(C)c4oc3=O)ccc2OC)c1 (stereo partly drawn)	pIC50	5.07
COc1cccc(-c2cc(C(=O)Nc3cc4cc(OC)c(OC5C=CCNC5)c(C)c4oc3=O)ccc2OC)c1 (stereo not drawn)	pIC50	4.94
COc1cccc(-c2cc(C(=O)Nc3cc4ccc(OC5CCCN(C)C5)c(OC)c4oc3=O)ccc2OC)c1 (stereo not drawn)	pIC50	5.12
COc1cccc(-c2cc(C(=O)Nc3cc4ccc(O[C@H]5OCC[C@@H](O)[C@H]5O)c(C)c4oc3=O)ccc2OC)c1	pIC50	5.21
COc1cccc(-c2cc(C(=O)Nc3cc4ccc(OC5C=CCNC5)c(C)c4oc3=O)ccc2OC)c1 (stereo not drawn)	pIC50	5.47
COc1cccc(-c2cc(C(=O)Nc3cc4ccc(OC5CCCNC5)c(OC)c4oc3=O)ccc2OC)c1 (stereo not drawn)	pIC50	4.90
COc1cccc(-c2cc(C(=O)Nc3cc4ccc(OC5CCC[C@@H](O)[C@H]5O)c(C)c4oc3=O)ccc2OC)c1 (stereo partly drawn)	pIC50	4.86

---

test system: B16-F10; experiment: Antiproliferative activity against mouse B16F10 cells after 72 hrs by MTS/PMS assay; format: functional, cell-based; conditions: B16-F10, 72 h
The following compounds are shown together with reported IC50 values.
measured property: IC50 (µM)

chemical structure	measured property	meas value
COc1cccc(-c2cc(C(=O)Nc3cc4cc(OC)c(OC5CCN(C)CC5)c(C)c4oc3=O)ccc2OC)c1	IC50	36.7
COc1cccc(-c2cc(C(=O)Nc3cc4ccc(O[C@H]5OCC[C@@H](O)[C@H]5O)c(C)c4oc3=O)ccc2OC)c1	IC50	8.56
COc1cc2cc(NC(=O)c3cc4ccccc4[nH]3)c(=O)oc2c(C)c1OC1CCN(C)CC1	IC50	1.19
COc1cccc(-c2cc(C(=O)Nc3cc4ccc(OCCN(C)C)c(C)c4oc3=O)ccc2OC)c1	IC50	15.7

---

The following compounds are shown together with reported pIC50 values.
tested on: SK-BR-3; test: Antiproliferative activity against human SKBR3 cells expressing HER2 after 72 hrs by MTS/PMS assay; format: functional, cell-based; conditions: SK-BR-3, 72 h
pIC50: −log10 of the molar value.

compound	cmp	pIC50
COc1cccc(-c2cc(C(=O)Nc3cc4ccc(OC5CC(C)(C)C[C@@H](O)[C@H]5O)c(OC)c4oc3=O)ccc2OC)c1 (stereo partly specified)	=	5.46
COc1cccc(-c2cc(C(=O)Nc3cc4cc(OC)c(O[C@H]5OCC[C@@H](O)[C@H]5O)c(C)c4oc3=O)ccc2OC)c1	=	4.90
COc1cccc(-c2cc(C(=O)Nc3cc4cc(OC)c(OC5CCC[C@@H](O)[C@H]5O)c(C)c4oc3=O)ccc2OC)c1 (stereo partly specified)	=	5.09
COc1cccc(-c2cc(C(=O)Nc3cc4ccc(O[C@H]5OCC[C@H]5O)c(C)c4oc3=O)ccc2OC)c1	<	4.00
COc1c(OC2CCN(C)CC2)ccc2cc(NC(=O)c3ccc(O)c(CC=C(C)C)c3)c(=O)oc12	=	6.04
COc1cccc(-c2cc(C(=O)Nc3cc4ccc(OC(N)=O)c(C)c4oc3=O)ccc2OC)c1	=	5.52
COc1cccc(-c2cc(C(=O)Nc3cc4cc(OC)c(OS(=O)(=O)c5ccc(C)cc5)c(C)c4oc3=O)ccc2OC)c1	<	4.00
COc1cccc(-c2cc(C(=O)Nc3cc4ccc(O[C@H]5C[C@H](O)CCO5)c(C)c4oc3=O)ccc2OC)c1	<	4.00
COc1cccc(-c2cc(C(=O)Nc3cc4ccc(O[C@@H]5C[C@H](O)CO5)c(C)c4oc3=O)ccc2OC)c1	<	4.00
COc1cccc(-c2cc(C(=O)Nc3cc4ccc(OC5CCC[C@@H](O)[C@H]5O)c(OC)c4oc3=O)ccc2OC)c1 (stereo partly specified)	=	5.13
COc1cccc(-c2cc(C(=O)Nc3cc4ccc(OC5OC(C)(C)[C@H](OC)[C@@H](O)[C@H]5O)c(OC)c4oc3=O)ccc2OC)c1 (stereo partly specified)	=	4.86
COc1cccc(-c2cc(C(=O)Nc3cc4ccc(OC5C=CCN(C)C5)c(OC)c4oc3=O)ccc2OC)c1 (stereo unspecified)	=	5.47
CNCCOc1ccc2cc(NC(=O)c3ccc(OC)c(-c4cccc(OC)c4)c3)c(=O)oc2c1C	=	5.27
CO[C@@H]1[C@@H](O)[C@@H](O)[C@H](Oc2ccc3cc(NC(=O)c4cc5ccccc5[nH]4)c(=O)oc3c2C)OC1(C)C	=	6.43
COc1cccc(-c2cc(C(=O)Nc3cc4cc(OC)c(OC5CC(C)(C)C[C@@H](O)[C@H]5O)c(C)c4oc3=O)ccc2OC)c1 (stereo partly specified)	<	4.00
COc1cccc(-c2cc(C(=O)Nc3cc4ccc(O[C@H]5C[C@H](O)CCO5)c(OC)c4oc3=O)ccc2OC)c1	=	5.06
